Tested on: U2OS
Assay: Multiplex assay against U2OS
Assay type: toxicity, cell-based
Details: human, 48 h, 1 µM, compound concentration 1 uM, replicate 2
READOUT TYPE: Population Mitotic Cells (%)
The reply should be a number in %, with the unit left off.

Kindly note the recorded Population Mitotic Cells (%) for CN1CCN(c2ccc(Nc3c4ccccc4nc4ccccc34)cc2)CC1.Cl.Cl.O , which is 0

Kindly note the recorded Population Mitotic Cells (%) for COc1ccc2[nH]c(I)c(CCNC(C)=O)c2c1 , which is 13

Kindly note the recorded Population Mitotic Cells (%) for CC(C)(C)c1ccc(CSc2cnn(C(C)(C)C)c(=O)c2Cl)cc1 , which is 15

Kindly note the recorded Population Mitotic Cells (%) for C[C@H](NC(=O)CNC(=O)c1cccc(Cl)c1)c1ccccc1 , which is 0

Kindly note the recorded Population Mitotic Cells (%) for Cc1cc(-c2ccc3c(c2)CC[C@H]3N2CC3(CCN(C(=O)Cc4cn5cc(C)sc5n4)CC3)C2)ncn1 , which is 33
